# credit: patent US9326973B2

System: HCV replicon, genotype-1a variant with glutamine 30 changed to glutamate in the NS5A protein
test_protocol: microbe, parasite or virus in culture
Type: cell-based, HCV genotype 1a
conditions: HCV replicon genotype 1a Q30E (Q→E) variant; test compound titrated with an NS5A-targeting compound (BMS-790052 fixed at 200 nM); ranking of synergist activity
outcome_measure: Fold-Synergistic 1a (Q30E)

// worked examples, Fold-Synergistic 1a (Q30E) included
compound	Fold-Synergistic 1a (Q30E)
O=C(c1cccs1)N1CCC[C@H]1c1ncc(-c2ccc(-c3ccc(-c4cnc([C@@H]5CCCN5C(=O)c5cccs5)[nH]4)cc3)cc2)[nH]1	<10 fold
COC(=O)N[C@@H](C(=O)N[C@H](c1ncc(-c2ccc(-c3ccc(-c4cnc([C@@H](NC(=O)[C@H](NC(=O)OC)C(C)C)C(C)C)o4)cc3)cc2)o1)C(C)C)C(C)C	>10 fold
CC(C)(C)[C@H](NC(=O)C(=O)N1CCC(C(F)(F)F)CC1)c1nc(-c2ccc(-c3ccc(-c4c[nH]c([C@@H](NC(=O)C(=O)N5CCC(C(F)(F)F)CC5)C(C)(C)C)n4)cc3)cc2)c[nH]1	>100 fold

// batch mode: one Fold-Synergistic 1a (Q30E) value per listed entry
1. COC(C)(C)[C@H](NC(=O)C(C)(C)C)c1nc(-c2ccc(-c3ccc(-c4c[nH]c([C@@H](NC(=O)C(C)(C)C)C(C)(C)OC)n4)cc3)cc2)c[nH]1
2. C[C@H]1C[C@@H](C(=O)N[C@H](c2nc(-c3ccc(-c4ccc(-c5c[nH]c([C@@H](NC(=O)[C@@H]6C[C@H](C)CN6C(=O)OC(C)(C)C)C(C)(C)C)n5)cc4)cc3)c[nH]2)C(C)(C)C)N(C(=O)OC(C)(C)C)C1
3. CC(C)(C)[C@H](NC(=O)Cc1ccccc1OC(F)(F)F)c1nc(-c2ccc(-c3ccc(-c4c[nH]c([C@@H](NC(=O)Cc5ccccc5OC(F)(F)F)C(C)(C)C)n4)cc3)cc2)c[nH]1

Response given:
[">100 fold", ">100 fold", ">100 fold"]

// batch mode: one Fold-Synergistic 1a (Q30E) value per listed entry
1. CC(C)(C)[C@H](NC(=O)C(F)(F)C(O)c1ccccc1)c1nc(-c2ccc(-c3ccc(-c4c[nH]c([C@@H](NC(=O)C(F)(F)C(O)c5ccccc5)C(C)(C)C)n4)cc3)cc2)c[nH]1 (stereo partly shown)
2. CC(C)(C)[C@H](NC(=O)C1CCC2(CC1)CC2)c1nc(-c2ccc(-c3ccc(-c4c[nH]c([C@@H](NC(=O)C5CCC6(CC5)CC6)C(C)(C)C)n4)cc3)cc2)c[nH]1 (stereo partly shown)

Response given:
1: >100 fold; 2: >100 fold

// batch mode: one Fold-Synergistic 1a (Q30E) value per listed entry
1. CN(C(=O)C(C)(C)C(=O)N[C@H](c1nc(-c2ccc(-c3ccc(-c4c[nH]c([C@@H](NC(=O)C(C)(C)C(=O)N(C)C5CC5)C(C)(C)C)n4)cc3)cc2)c[nH]1)C(C)(C)C)C1CC1
2. CC1(C(=O)N[C@H](c2nc(-c3ccc(-c4ccc(-c5c[nH]c([C@@H](NC(=O)C6(C)CCCO6)C(C)(C)C)n5)cc4)cc3)c[nH]2)C(C)(C)C)CCCO1 (stereo partly shown)

Response given:
["<10 fold", ">100 fold"]
